Target: mTOR (Homo sapiens, UniProt P42345)
Construct: endogenous in cells; host or cells: Jurkat, clone E6-1 (ATCC TIB-152) cell lysate
Experiment: mTOR kinobeads assay (competitive binding in Jurkat cell lysate, immunodetection)
Details: kinobeads assay, Table 6; read-out: Inhibition values (IC50) mTOR
Endpoint label: IC50

[[record]]
smiles_representation = "CC(C)CN1CCc2c(nc(-c3ccc(NC(=O)NC4CC4)cc3)nc2N2CCOC[C@@H]2C)C1"
endpoint_label = "IC50"
result = "< 100 nM"

[[record]]
smiles_representation = "CCOC(=O)N1Cc2nc(-c3ccc(NC(=O)NCC(=O)NC)cc3)nc(N3CCOC[C@@H]3C)c2C1"
endpoint_label = "IC50"
result = "100 to 1000 nM"

[[record]]
smiles_representation = "CCNC(=O)Nc1ccc(-c2nc3c(c(N4CCOCC4)n2)CCN(C)C3)cc1"
endpoint_label = "IC50"
result = "100 to 1000 nM"


# ---- query compound ----
With mTOR (Homo sapiens, UniProt P42345) as the test system, CCNC(=O)Nc1ccc(-c2nc3c(c(N4CCOC[C@@H]4C)n2)CCN(C)C3)c(F)c1 showed IC50 of 100 to 1000 nM
